Field: AUC(0-t). Provide a value for each of the compounds that follow.
Experiment: Pharmacokinetics in CD-1 mice
Format: in vivo
Conditions: CD-1, brain; mouse, 10 mg/kg, PO; read-out: AUC0-24, brain

Nc1ccc2[nH]c(-c3ccc(-c4nc5ccc(N)cc5o4)cc3)nc2c1 [Compound 2] | 0.054 µM·h

// returns reported AUC(0-t) for input Nc1ccc2[nH]c(-c3ccc(-c4nc5cc(N)ccc5o4)cc3)nc2c1 [Compound 1]
0.12 µM·h

---

Field: fraction unbound at 15 min, 10 μM. Provide a value for each of the molecules that follow.
Experiment: Protein binding, human plasma (ultrafiltration)
Assay type: in vitro ADME
Conditions: human, plasma, pH 7.4

# batch size: 2; output fraction unbound at 15 min, 10 μM per entry
1. Nc1ccc2[nH]c(-c3ccc(-c4nc5ccc(N)cc5o4)cc3)nc2c1
2. Nc1ccc2[nH]c(-c3ccc(-c4nc5cc(N)ccc5o4)cc3)nc2c1

["< 0.003", "< 0.01"]

---

Test: Cytotoxicity assay in stimulated PBMCs (ATP, CellTiter-Glo)
Type: cell-based
Details: PBMCs stimulated with PHA and IL-2, ATP quantification
Protocol: SupT1 cells were plated at 100,000 per well in 96-well, white-walled plates with serial dilutions of test compound in a total volume of 100 μl RPMI-1640 medium containing 10% FBS and 0.5% DMSO. […] ATP was quantified using the CellTiter-Glo Luminescent Cell Viability Assay (Promega, Madison, WI) on a ViewLux microplate imager (Perkin Elmer, Waltham, MA). Percent cytotoxicity was determined relative to vehicle-only treated wells.
EXPERIMENTAL READOUT: CC50 at 72 h (µM)
Answers are plain numbers, in µM.

// returns reported CC50 at 72 h for input Nc1ccc2[nH]c(-c3ccc(-c4nc5cc(N)ccc5o4)cc3)nc2c1
18

---

Assay: Cytotoxicity assay in SupT1 cells (ATP, CellTiter-Glo)
Assay type: cell-based
Settings: human; T cells (SupT1) and PBMCs; read-out: CC50 across cytotoxicity assays
EXPERIMENTAL READOUT: CC50 at 72 h

// returns reported CC50 at 72 h for input Nc1ccc2[nH]c(-c3ccc(-c4nc5cc(N)ccc5o4)cc3)nc2c1 [Compound 1]
5 to 18 µM

---

Test: Cytotoxicity assay in SupT1 cells (ATP, CellTiter-Glo)
Format: cell-based
Conditions: human, SupT1 cells; ATP quantification; 72 h; read-out: CC50, SupT1
Field: CC50 at 72 h. Provide a value for each of the compounds that follow.

# batch size: 6; output CC50 at 72 h per entry
1. Nc1ccc2[nH]c(-c3ccc(-c4nc5cc(N)ccc5[nH]4)cc3)nc2c1
2. Nc1ccc2[nH]c(-c3ccc(-c4nc5ccc(N)cc5o4)cc3)nc2c1
3. Cn1c(-c2ccc(-c3nc4cc(N)ccc4o3)cc2)nc2cc(N)ccc21
4. Nc1ccc2[nH]c(-c3ccc(-c4nc5c(N)cccc5o4)cc3)nc2c1
5. Nc1ccc2oc(-c3ccc(-c4nc5cc(N)ccc5o4)cc3)nc2c1
6. Nc1ccc2[nH]c(-c3ccc(-c4nc5cc(N)ccc5o4)cc3)nc2c1

1. > 100 µM
2. > 100 µM
3. > 100 µM
4. 8.8 µM
5. > 100 µM
6. 5.2 µM

---

Assay: Pharmacokinetics in CD-1 mice
Type: in vivo
Conditions: CD-1, plasma; mouse, 10 mg/kg, PO
Field: Cmax. Provide a value for each of the compounds that follow.
Give bare numbers, in nM.

Nc1ccc2[nH]c(-c3ccc(-c4nc5ccc(N)cc5o4)cc3)nc2c1 | 180

We next turn to a different compound, shown below.
// returns reported Cmax for input Nc1ccc2[nH]c(-c3ccc(-c4nc5cc(N)ccc5o4)cc3)nc2c1
550

---

Experiment: Cytotoxicity assay in SupT1 cells (ATP, CellTiter-Glo)
Type: cell-based
Conditions: human, SupT1 cells; read-out: Selective window, CC50 versus EC2X
EXPERIMENTAL READOUT: selectivity ratio at 72 h

// returns reported selectivity ratio at 72 h for input Nc1ccc2[nH]c(-c3ccc(-c4nc5ccc(N)cc5o4)cc3)nc2c1
≥ 3

---

Experiment: Cytotoxicity assay in SupT1 cells (ATP, CellTiter-Glo)
Format: cell-based
Settings: human, SupT1 cells; with regards to respective EC2X (SEAP reporter); read-out: Selective window, CC50 versus EC2X
Method: SupT1 cells were plated at 100,000 per well in 96-well, white-walled plates with serial dilutions of test compound in a total volume of 100 μl RPMI-1640 medium containing 10% FBS and 0.5% DMSO. […] ATP was quantified using the CellTiter-Glo Luminescent Cell Viability Assay (Promega, Madison, WI) on a ViewLux microplate imager (Perkin Elmer, Waltham, MA). Percent cytotoxicity was determined relative to vehicle-only treated wells.
EXPERIMENTAL READOUT: selectivity ratio at 72 h

// returns reported selectivity ratio at 72 h for input Nc1ccc2[nH]c(-c3ccc(-c4nc5cc(N)ccc5o4)cc3)nc2c1
≥ 3

---

Test: Protein binding, mouse plasma (ultrafiltration)
Format: in vitro ADME
Conditions: mouse, plasma, pH 7.4
EXPERIMENTAL READOUT: fraction unbound at 15 min, 10 μM

# batch size: 3; output fraction unbound at 15 min, 10 μM per entry
1. CC(=O)CC(c1ccccc1)c1c(O)c2ccccc2oc1=O (racemic) [Warfarin, (RS)-warfarin, reference compound]
2. Nc1ccc2[nH]c(-c3ccc(-c4nc5cc(N)ccc5o4)cc3)nc2c1 [Compound 1]
3. Nc1ccc2[nH]c(-c3ccc(-c4nc5ccc(N)cc5o4)cc3)nc2c1 [Compound 2]

[0.047, "< 0.03", "< 0.025"]
